TEST_SYSTEM: recombinant BRD4 BD1 (Homo sapiens)
Construct: for recombinant BRD4 BD1 and BRD4 BD2 proteins
ASSAY_OVERVIEW: Competitive fluorescence-polarization (FP) binding assay, BRD4 BD1; note: probe 1.5 nM
CONDITION_INFO: competitive FP assay; protein 10 nM, probe […]; read-out: IC50 (nM) BRD4 BD1
MEASUREMENT_KIND: IC50 (nM)

P = COc1cc2c(cc1-c1c(C)noc1C)[nH]c1nc(C)nc(Nc3cn(C)nc3C)c12 [Cpd. No. 34]
Q = COc1cc2c(cc1-c1c(C)noc1C)[nH]c1nc(C)nc(Nc3cn(C)nc3C(C)(C)C)c12 [Cpd. No. 193]
Qu. Higher IC50: P or Q ? Could you answer with the label of the item you picked?
Ans. P
(P: 30.2 nM, Q: 3.6 nM)

---

TEST_SYSTEM: recombinant BRD4 BD2 (Homo sapiens)
Construct: for recombinant BRD4 BD1 and BRD4 BD2 proteins
ASSAY_OVERVIEW: Competitive fluorescence-polarization (FP) binding assay, BRD4 BD2; note: probe 1.5 nM
CONDITION_INFO: competitive FP assay; protein 6 nM, probe […]; read-out: IC50 (nM) BRD4 BD2
MEASUREMENT_KIND: IC50 (nM)

{"STRUCTURE_SMILES_STRING": "COc1cc2c(cc1-c1c(C)noc1C)[nH]c1nc(C)nc(Nc3nn(C)cc3C(C)C)c12", "TEST_SYSTEM": "recombinant BRD4 BD2 (Homo sapiens)", "IC50 (nM)": 63.5}

I = COc1cc2c(cc1-c1c(C)noc1C)[nH]c1nc(C)nc(Nc3nn(CCO)c4ccccc34)c12
II = COc1cc2c(cc1-c1c(C)noc1C)[nH]c1nc(C)nc(Nc3cccc4ncccc34)c12
III = COc1cc2c(cc1-c1c(C)noc1C)[nH]c1nc(C)nc(Nc3nn(C)c4ccccc34)c12
IV = COc1cc2c(cc1-c1c(C)noc1C)[nH]c1nc(C)nc(Nc3c4c(nn3C(C)C)CCC4)c12
V = COc1cc2c(cc1-c1c(C)noc1C)[nH]c1nc(C)nc(Nc3cc(C)nn3C(C)C)c12
Qu. Rank ascending by IC50. # answer = labels listed in requested order
Ans. IV, V, II, III, I
(IV: 1.2 nM, V: 6.3 nM, II: 17 nM, III: 28.2 nM, I: 51.4 nM)

---

System: MDA-MB-436
ASSAY_OVERVIEW: Cell growth inhibition, MDA-MB-436 breast cancer cells (WST-8)
Type: cell-based
CONDITION_INFO: Homo sapiens, MDA-MB-436, 96 h; 4 days; read-out: IC50 (nM) MDA-MB-436 Cell Line (WST assay)
MEASUREMENT_KIND: IC50 (nM)

Worked set:
{"STRUCTURE_SMILES_STRING": "COc1cc2c(cc1-c1c(C)noc1C)[nH]c1nc(C)nc(Nc3cccc4ncsc34)c12", "IC50 / nM": 88}
{"STRUCTURE_SMILES_STRING": "COc1cc2c(cc1-c1c(C)noc1C)[nH]c1nc(C)nc(Nc3c(C(C)C)cnn3C)c12", "IC50 / nM": 121}
{"STRUCTURE_SMILES_STRING": "COc1cc2c(cc1-c1c(C)noc1C)[nH]c1nc(C)nc(Nc3cccc4ccncc34)c12", "IC50 / nM": 152}

a = CCn1nc(C2CC2)c(F)c1Nc1nc(C)nc2[nH]c3cc(-c4c(C)noc4C)c(OC)cc3c12
b = COc1cc2c(cc1-c1c(C)noc1C)[nH]c1nc(C)nc(Nc3cn(C)nc3C(C)(C)O)c12
Qu. Decide: a or b , by lowest recorded IC50. Could you answer with the label of the item you picked?
Ans. a
(a: 67 nM, b: 154 nM)
